- Assay comment: In vivo pharmacokinetics in SD rats
- Condition parameters: rat, plasma, iv, 1 mg/kg
Property label: AUC(0-t) (ng·h/mL)
Give bare numbers, in ng·h/mL.

Incoming: Read the entry Cc1cc(-c2ccc(C#N)cc2)cc(C)c1Oc1nc(NCCN2CCOCC2)nc(Nc2ccc(C#N)cc2)n1 [Compound 5j] and write its reported AUC(0-t).
Outgoing: 6650

###

What IC50 was measured for each of the following?
- Target system: HIV-1 RT RNase H (Human immunodeficiency virus type 1 group M subtype B)

Quick request: IC50 for each listed item, please.
1. Cc1cc(-c2ccc(C#N)cc2)cc(C)c1Nc1nc(Nc2ccc(C#N)cc2)nc(N2CCNCC2)n1
2. Cc1cc(-c2ccc(C#N)cc2)cc(C)c1Oc1nc(Nc2ccc(C#N)cc2)nc(NC2CCOCC2)n1
3. Cc1cc(-c2ccc(C#N)cc2)cc(C)c1Oc1nc(NCC2CCOC2)nc(Nc2ccc(C#N)cc2)n1 (stereo not shown)
4. Cc1cc(-c2ccc(C#N)cc2)cc(C)c1Oc1nc(Nc2ccc(C#N)cc2)nc(N2CCNCC2)n1
5. Cc1cc(-c2ccc(C#N)cc2)cc(C)c1Nc1nc(Nc2ccc(C#N)cc2)nc(N2CCC(O)CC2)n1
6. Cc1cc(-c2ccc(C#N)cc2)cc(C)c1Nc1nc(Nc2ccc(C#N)cc2)nc(N2CCOCC2)n1

Outgoing:
1. > 1200 µM
2. > 1160 µM
3. > 1160 µM
4. > 1190 µM
5. > 1160 µM
6. > 1190 µM

###

- Assay comment: In vivo pharmacokinetics in SD rats
- Condition parameters: rat, plasma, iv, 1 mg/kg
Property label: clearance
Answer by giving the amount and then stating its unit.

Incoming: Look up and report measured clearance for this entry: Cc1cc(-c2ccc(C#N)cc2)cc(C)c1Oc1nc(NCCN2CCOCC2)nc(Nc2ccc(C#N)cc2)n1 [Compound 5j]
Outgoing: 5.06 mL/min/kg

###

- Test system: HIV-1 F227L + V106A
- Assay comment: Anti-HIV-1 activity against double mutant F227L + V106A in MT-4 cells
- Format: cell-based
- Condition parameters: Human immunodeficiency virus 1, MT4, read-out: EC50 F227L + V106A
Property label: EC50 (nM)
Answers are plain numbers, in nM.

Cc1cc(-c2ccc(C#N)cc2)cc(C)c1Oc1nc(Nc2ccc(C#N)cc2)nc(N2CCC(O)C2)n1 (stereo not drawn); 930
Cc1cc(-c2ccc(C#N)cc2)cc(C)c1Nc1nc(Nc2ccc(C#N)cc2)nc(N2CCC(O)C2)n1 (stereo not drawn); 1040

Incoming: Return the recorded EC50 value; entry: `Cc1cc(-c2ccc(C#N)cc2)cc(C)c1Oc1nc(NCCN2CCOCC2)nc(Nc2ccc(C#N)cc2)n1`
Outgoing: 17

###

- Target system: UniProtKB P03366
pIC50: −log10 of the molar value.
Property label: pIC50

Observe how each entry below is paired with its result.
Cc1cc(-c2ccc(C#N)cc2)cc(C)c1Nc1nc(Nc2ccc(C#N)cc2)nc(N2CCN(C)CC2)n1; < 2.93
Cc1cc(-c2ccc(C#N)cc2)cc(C)c1Nc1nc(Nc2ccc(C#N)cc2)nc(N2CCCC2CO)n1 (stereo not shown); < 2.94
Cc1cc(-c2ccc(C#N)cc2)cc(C)c1Oc1nc(Nc2ccc(C#N)cc2)nc(N2CCC(O)C2)n1 (stereo not shown); < 3.08
Cc1cc(-c2ccc(C#N)cc2)cc(C)c1Oc1nc(NCCN2CCOCC2)nc(Nc2ccc(C#N)cc2)n1; < 2.96
COC(=O)[C@@H]1CCCN1c1nc(Nc2ccc(C#N)cc2)nc(Nc2c(C)cc(-c3ccc(C#N)cc3)cc2C)n1; < 2.96
Cc1cc(-c2ccc(C#N)cc2)cc(C)c1Oc1nc(NCCN2CCN(C)CC2)nc(Nc2ccc(C#N)cc2)n1; < 2.97

Incoming: Fill: pIC50 (UniProtKB P03366) for this molecule `Cc1cc(-c2ccc(C#N)cc2)cc(C)c1Oc1nc(Nc2ccc(C#N)cc2)nc(N2CCOCC2)n1`
Outgoing: 3.18

###

- Assay comment: In vivo pharmacokinetics in SD rats
- Condition parameters: rat, plasma, iv, 1 mg/kg
Property label: half-life
Report as: number unit

Incoming: For Cc1cc(-c2ccc(C#N)cc2)cc(C)c1Oc1nc(NCCN2CCOCC2)nc(Nc2ccc(C#N)cc2)n1 [Compound 5j] , write its half-life.
Outgoing: 44 min

###

- Target system: CYP1A2 (Homo sapiens)
- Sequence (P05177 whole entry): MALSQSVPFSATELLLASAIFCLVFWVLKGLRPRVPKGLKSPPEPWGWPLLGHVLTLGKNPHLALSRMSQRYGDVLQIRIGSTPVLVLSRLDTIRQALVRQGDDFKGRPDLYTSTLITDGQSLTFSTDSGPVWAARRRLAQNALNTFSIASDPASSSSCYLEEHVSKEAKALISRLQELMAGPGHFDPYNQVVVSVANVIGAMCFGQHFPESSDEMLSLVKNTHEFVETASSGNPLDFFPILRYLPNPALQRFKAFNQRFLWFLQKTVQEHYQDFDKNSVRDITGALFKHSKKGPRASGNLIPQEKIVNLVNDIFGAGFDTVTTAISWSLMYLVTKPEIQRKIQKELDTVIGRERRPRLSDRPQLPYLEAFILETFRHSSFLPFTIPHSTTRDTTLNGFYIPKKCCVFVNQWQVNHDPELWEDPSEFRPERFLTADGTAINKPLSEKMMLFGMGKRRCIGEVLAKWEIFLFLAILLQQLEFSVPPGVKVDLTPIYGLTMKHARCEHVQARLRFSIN
pIC50: −log10 of the molar value.
Property label: pIC50

Incoming: Provide only the value of recorded pIC50 for `Cc1cc(-c2ccc(C#N)cc2)cc(C)c1Oc1nc(NCCN2CCOCC2)nc(Nc2ccc(C#N)cc2)n1`
Outgoing: < 4.30

###

- Assay comment: Plasma protein binding, dialysis equilibrium method, rat
For each record, write down the corresponding recovery at 2 μmol/L.
One number for each entry, in %.

CC(=O)CC(c1ccccc1)c1c(O)c2ccccc2oc1=O (centres unmarked) [Warfarin, reference compound]; 99

Consider the record given below.
Incoming: Tell me recovery at 2 μmol/L reported for `Cc1cc(-c2ccc(C#N)cc2)cc(C)c1Oc1nc(NCCN2CCOCC2)nc(Nc2ccc(C#N)cc2)n1`
Outgoing: 99.5

###

I'd appreciate it if you could supply recovery at 2 μmol/L values for the items below.
- Assay comment: Plasma protein binding, dialysis equilibrium method, human
One number for each entry, in %.

Cc1cc(-c2ccc(C#N)cc2)cc(C)c1Oc1nc(NCCN2CCOCC2)nc(Nc2ccc(C#N)cc2)n1 [Compound 5j]; 84.9

Incoming: Provide measured recovery at 2 μmol/L value, entry: CC(=O)CC(c1ccccc1)c1c(O)c2ccccc2oc1=O (centres unmarked) [Warfarin, reference compound]
Outgoing: 86

###

- Target system: CYP3A4M (Homo sapiens, UniProt P08684)
- Sequence (P08684 whole entry): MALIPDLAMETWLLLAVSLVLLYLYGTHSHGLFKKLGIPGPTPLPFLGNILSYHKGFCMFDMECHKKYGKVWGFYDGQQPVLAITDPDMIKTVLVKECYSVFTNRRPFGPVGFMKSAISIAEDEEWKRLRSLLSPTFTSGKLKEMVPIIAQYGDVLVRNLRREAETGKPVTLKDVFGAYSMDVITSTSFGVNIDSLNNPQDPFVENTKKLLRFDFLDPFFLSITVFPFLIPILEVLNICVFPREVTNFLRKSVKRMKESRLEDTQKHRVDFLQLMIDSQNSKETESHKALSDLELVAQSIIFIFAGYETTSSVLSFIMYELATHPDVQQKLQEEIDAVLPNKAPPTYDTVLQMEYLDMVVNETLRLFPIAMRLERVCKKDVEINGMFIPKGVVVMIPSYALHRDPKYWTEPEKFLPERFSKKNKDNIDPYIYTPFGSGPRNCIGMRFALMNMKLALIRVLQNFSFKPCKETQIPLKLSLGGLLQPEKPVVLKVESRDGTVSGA
pIC50: −log10 of the molar value.
Property label: pIC50

Incoming: Complete the entry with pIC50 for `Cc1cc(-c2ccc(C#N)cc2)cc(C)c1Oc1nc(NCCN2CCOCC2)nc(Nc2ccc(C#N)cc2)n1`
Outgoing: < 4.30

###

- Tested on: HIV-1 F227L + V106A
- Assay comment: Anti-HIV-1 activity against double mutant F227L + V106A in MT-4 cells
- Format: cell-based
- Condition parameters: read-out: EC50 F227L + V106A; MT-4 cells, double mutant
Property label: EC50 (nM)
Numbers only, in nM.

Incoming: For the molecule O=C1Nc2ccc(Cl)cc2[C@@](C#CC2CC2)(C(F)(F)F)O1 [EFV, reference compound] , give its measured EC50 value.
Outgoing: 84

###

- Target system: CYP2D6 (Homo sapiens)
- Sequence (P10635 whole entry): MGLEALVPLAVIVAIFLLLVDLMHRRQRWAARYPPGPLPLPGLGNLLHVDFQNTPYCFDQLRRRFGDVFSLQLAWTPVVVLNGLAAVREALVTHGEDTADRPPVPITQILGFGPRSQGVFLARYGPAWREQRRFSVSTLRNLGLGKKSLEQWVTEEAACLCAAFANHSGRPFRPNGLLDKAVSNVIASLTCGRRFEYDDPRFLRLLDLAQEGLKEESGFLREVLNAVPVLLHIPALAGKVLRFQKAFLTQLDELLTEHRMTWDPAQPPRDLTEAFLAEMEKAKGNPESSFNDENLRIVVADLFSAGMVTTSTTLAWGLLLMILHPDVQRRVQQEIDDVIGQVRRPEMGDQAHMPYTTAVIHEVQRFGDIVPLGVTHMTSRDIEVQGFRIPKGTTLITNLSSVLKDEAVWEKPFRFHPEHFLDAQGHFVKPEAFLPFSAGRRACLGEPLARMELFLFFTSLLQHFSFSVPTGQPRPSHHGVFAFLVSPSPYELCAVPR
Property label: IC50

Incoming: Query IC50 for Cc1cc(-c2ccc(C#N)cc2)cc(C)c1Oc1nc(NCCN2CCOCC2)nc(Nc2ccc(C#N)cc2)n1 [Compound 5j]
Outgoing: > 50 µM

###

As a worked illustration, we turn to IC50 data collected for WT HIV-1 RT (Human immunodeficiency virus type 1 group M subtype B).
One number for each entry, in µM.

Worked cases, IC50 given:
Cc1cc(-c2ccc(C#N)cc2)cc(C)c1Nc1nc(Nc2ccc(C#N)cc2)nc(N2CCN(C)CC2)n1 [Compound 6i]; 0.227
Cc1cc(-c2ccc(C#N)cc2)cc(C)c1Oc1nc(Nc2ccc(C#N)cc2)nc(N2CCC(O)C2)n1 (centres unmarked) [Compound 5h]; 0.161
Cc1cc(-c2ccc(C#N)cc2)cc(C)c1Nc1nc(Nc2ccc(C#N)cc2)nc(N2CCOCC2)n1 [Compound 6g]; 0.137

Batch: IC50 for all items listed.
1. Cc1cc(-c2ccc(C#N)cc2)cc(C)c1Oc1nc(NCCN2CCN(C)CC2)nc(Nc2ccc(C#N)cc2)n1 [Compound 5k]
2. COC(=O)[C@@H]1CCCN1c1nc(Nc2ccc(C#N)cc2)nc(Nc2c(C)cc(-c3ccc(C#N)cc3)cc2C)n1 [Compound 6f]

Outgoing:
0.658
0.253

###

- System: HIV-1 Y181C
- Assay comment: Anti-HIV-1 activity against mutant strain Y181C in MT-4 cells
- Type: cell-based
- Condition parameters: Human immunodeficiency virus 1, MT4, read-out: EC50 Y181C
For each entry below, report its EC50 value.
Numbers only, in nM.

Cc1cc(-c2ccc(C#N)cc2)cc(C)c1Oc1nc(Nc2ccc(C#N)cc2)nc(N2CCC(O)C2)n1 (stereo not drawn); 9.2
Cc1cc(-c2ccc(C#N)cc2)cc(C)c1Oc1nc(NCCN2CCOCC2)nc(Nc2ccc(C#N)cc2)n1; 13
Cc1cc(-c2ccc(C#N)cc2)cc(C)c1Nc1nc(NCC2CCOC2)nc(Nc2ccc(C#N)cc2)n1 (stereo not drawn); 11

Okay, here is my list. What is EC50 for each of these?
1. Cc1cc(-c2ccc(C#N)cc2)cc(C)c1Nc1nc(Nc2ccc(C#N)cc2)nc(N2CCN(C)CC2)n1
2. Cc1cc(-c2ccc(C#N)cc2)cc(C)c1Nc1nc(Nc2ccc(C#N)cc2)nc(N2CCC(O)C2)n1 (stereo not drawn)

Outgoing:
[17, 3]

These data points were gathered from paper PMC7016291.
